Every entry's value here was drawn from the supplement of paper PMC6555819.

- System: PPARg homodimer (NR concentration 180 nM)
- Test Name: PBM binding z-score (relative to random genomic background probes); higher = stronger binding; sequences stand for … in GC…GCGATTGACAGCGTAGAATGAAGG
Here, each record is paired with measured PBM binding z-score data.

Guide cases for PBM binding z-score, answers given:
{"Biopolymer Sequence": "ACAGACAGGTGAGTGAACGTAACTCAGCTGGACG", "Assayed Target": "PPARg homodimer (NR concentration 180 nM)", "Value": -0.743}
{"Biopolymer Sequence": "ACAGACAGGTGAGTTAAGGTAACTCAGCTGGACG", "Assayed Target": "PPARg homodimer (NR concentration 180 nM)", "Value": 0.279}
{"Biopolymer Sequence": "TCTTGTAGATCAACAGGGGGTTAAGAAAGATCGA", "Assayed Target": "PPARg homodimer (NR concentration 180 nM)", "Value": 1.07}
{"Biopolymer Sequence": "CGTCCAAGGTCAAAAGTCAGTGAAGAGATGACGG", "Assayed Target": "PPARg homodimer (NR concentration 180 nM)", "Value": 1.17}
{"Biopolymer Sequence": "CCTGGTAGGTCATGGTCAGCTAATCTACAGTATG", "Assayed Target": "PPARg homodimer (NR concentration 180 nM)", "Value": 1.94}

Checklist item: PBM binding z-score tested on PPARg homodimer (NR concentration 180 nM), entry TCTTTTAGTTGATTAGGGCAACCGAAACAGCGGA , value? 1.2

// same read-out, input: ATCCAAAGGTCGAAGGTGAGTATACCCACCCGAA 2.58

Now consider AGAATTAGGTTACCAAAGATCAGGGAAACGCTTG . 1.54

CGAACTAGGTCATTGACGGGACAGTGAATAGTAA ? 1.5

# iterate: GCTACAGGGTCAGCTAGAGGCCAGAGTATGGAAA 1.43

And for AGAATGAGTTTATTAAGATCAGGGAATTGCGGTC ? 0.334

Try the sequence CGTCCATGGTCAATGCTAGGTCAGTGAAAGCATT 0.231

* * *

- Test system: RXRa DBDmut IVT, anti-RXR (DBD mutation: RXRa K156A/R161A, NR concentration 90 nM)
- Test Name: PBM binding z-score (relative to random genomic background probes); higher = stronger binding; sequences stand for … in GC…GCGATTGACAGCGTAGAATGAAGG
Endpoint Label: PBM binding z-score
Lab note: write the figure by itself, no unit.

Field: example entries. Status: answers known.
{"Biopolymer Sequence": "GCTTACGGGTTAAAGGTTATAGCATGAATAGAAT", "Assayed Target": "RXRa DBDmut IVT, anti-RXR (DBD mutation: RXRa K156A/R161A, NR concentration 90 nM)", "PBM binding z-score": 0.714}
{"Biopolymer Sequence": "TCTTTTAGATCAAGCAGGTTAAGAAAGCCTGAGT", "Assayed Target": "RXRa DBDmut IVT, anti-RXR (DBD mutation: RXRa K156A/R161A, NR concentration 90 nM)", "PBM binding z-score": 1.19}
{"Biopolymer Sequence": "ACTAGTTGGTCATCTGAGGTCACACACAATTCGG", "Assayed Target": "RXRa DBDmut IVT, anti-RXR (DBD mutation: RXRa K156A/R161A, NR concentration 90 nM)", "PBM binding z-score": 1.93}
{"Biopolymer Sequence": "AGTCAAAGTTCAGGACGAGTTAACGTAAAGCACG", "Assayed Target": "RXRa DBDmut IVT, anti-RXR (DBD mutation: RXRa K156A/R161A, NR concentration 90 nM)", "PBM binding z-score": 2.71}
{"Biopolymer Sequence": "GCGACTGGGGCATCTGCAGGTTACCATAACTTAA", "Assayed Target": "RXRa DBDmut IVT, anti-RXR (DBD mutation: RXRa K156A/R161A, NR concentration 90 nM)", "PBM binding z-score": -0.0161}

For RXRa DBDmut IVT, anti-RXR (DBD mutation: RXRa K156A/R161A, NR concentration 90 nM), provide PBM binding z-score of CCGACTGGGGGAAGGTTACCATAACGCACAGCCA please. -0.37

Entry to check: TCTTGTAGATCAAAGGTTAAGATAGCCGAAGCCT 0.675

Consider next the sequence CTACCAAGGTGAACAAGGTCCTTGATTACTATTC in the same way. 0.723

One more sequence: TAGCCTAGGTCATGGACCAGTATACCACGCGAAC 0.316

Another sequence to look at: TGTCAAAGTTCAGAGGTAACGTAAGTATCCACAC 3.01

How about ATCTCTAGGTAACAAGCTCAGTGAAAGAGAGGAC ? -0.305

Now consider GCTATTAGTTGAAAGGGCAAGCGAATGATTCTCG . 0.747

* * *

- System: VDR:RXRa (NR concentration 270 nM, RXRa partner concentration 90 nM)
- Test Name: PBM binding z-score (relative to random genomic background probes); higher = stronger binding; sequences stand for … in GC…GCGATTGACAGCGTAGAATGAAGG
Let's look at some sequences and their measured PBM binding z-score.

Solved entries:
{"Biopolymer Sequence": "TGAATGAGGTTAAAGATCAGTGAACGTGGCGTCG", "PBM binding z-score": 1.62}
{"Biopolymer Sequence": "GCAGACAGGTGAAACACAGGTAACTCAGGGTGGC", "PBM binding z-score": -0.244}

Would you mind telling me what PBM binding z-score value was observed for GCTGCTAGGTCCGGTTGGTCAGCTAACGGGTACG ? -0.965

Same thing, different sequence: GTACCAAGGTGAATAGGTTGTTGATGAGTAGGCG 1.38

Ok, now AGAATGAGGTTATACGTAGACCAGGGAAGAAAGT 1.18

Try the sequence TCGTATAGGTAAAAGGTGAAAGTCGGTGTGGTAA 1.58

Entry ATCTCTAAGTAAAGATAGTTCAGTGAATGCAAAT please 0.741

Now this one: ATCTCTAGGTAATGATAGTTCAGTGAATGCAAAT 0.849

Same question, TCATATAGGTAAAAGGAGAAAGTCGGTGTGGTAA this time 0.929

Can you handle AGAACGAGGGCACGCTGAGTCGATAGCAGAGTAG next? 0.908

Next sequence up: ACAGACAGGTGAGTGAAGGCAACTCAGCTGGACG -0.535

// query: GCTTTTAGATCAAGGTTAAGAAAGACTAAGCTAA 0.374

Another sequence to look at: GATACAGGGTAAGCTAGAGGCCAGAGTATGGAAA -0.409

And for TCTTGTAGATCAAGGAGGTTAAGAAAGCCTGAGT ? 1.26

What about TGAATGAGGTTAAAGCTCAGGGAACGTGGCGTCG ? 1.14

GCTATTAGTTGAAAGGGCTACCGAATGATTCTCG ? -0.406

Another sequence: TATACAGGGTCAAAGGCCAGAGAACGAATGTCGA 4.77

Try this sequence next: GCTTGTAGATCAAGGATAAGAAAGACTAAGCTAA -0.525

* * *

- Test system: RARb homodimer (NR concentration 270 nM)
- Test Name: PBM binding z-score (relative to random genomic background probes); higher = stronger binding; sequences stand for … in GC…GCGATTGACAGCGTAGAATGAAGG
In this section, each of the sequences is paired with its reported PBM binding z-score.
Lab note: jot down the number only; don't add units.

Example cases with answers are listed next.
{"Biopolymer Sequence": "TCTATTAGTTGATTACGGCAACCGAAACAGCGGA", "PBM binding z-score": -0.0417}
{"Biopolymer Sequence": "TGAATGAGGTTATAAGATCAGGTAACGTTGCAAA", "PBM binding z-score": 0.391}

I am curious: what PBM binding z-score value has been reported for CCGTCTGGGGCAGAAAGGTTACCATACCATCCGG ? 2.03

Entry to check: CCTACTGAGCCATTCAGAGGTCATTGATCATATG 4.08

Request: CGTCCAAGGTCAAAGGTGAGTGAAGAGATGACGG 4.48

And for GCATATAGGTAATACAAGGTGAAAATCCGATTGT ? 0.426

// repeat for GGAACGAGGGCAAAGTAGATAGCATCTGTCGACG and report 0.856

Also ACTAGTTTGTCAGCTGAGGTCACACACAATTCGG , if possible. 3.94

Then CCTACTTGGCCAAGGTCATTGATCAGTCAAAGCA ? 3.78

Cool, now ATATGTAGGTTATCGGTTCATTCAGTTTGCGCAT 1.17

Same question, CCTCGGAGGACAACAGGAGGTCAGCGCTGCCAGA this time 3.96

Entry CCGACTGGGGCAGATAGGTTACCATACCATCCGG please 0.817
